target: Cyclin-dependent kinase 6/G1/S-specific cyclin-D1 (Homo sapiens, UniProt Q00534)
Sequence (P24385 whole entry): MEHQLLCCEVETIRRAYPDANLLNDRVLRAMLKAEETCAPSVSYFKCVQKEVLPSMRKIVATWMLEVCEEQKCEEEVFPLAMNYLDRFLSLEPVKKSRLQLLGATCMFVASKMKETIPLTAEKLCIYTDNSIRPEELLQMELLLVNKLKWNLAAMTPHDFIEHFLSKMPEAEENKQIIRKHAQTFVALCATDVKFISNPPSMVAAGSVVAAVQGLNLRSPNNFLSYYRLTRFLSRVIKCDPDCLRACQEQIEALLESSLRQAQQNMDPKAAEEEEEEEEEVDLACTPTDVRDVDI
Sequence (Q00534 whole entry): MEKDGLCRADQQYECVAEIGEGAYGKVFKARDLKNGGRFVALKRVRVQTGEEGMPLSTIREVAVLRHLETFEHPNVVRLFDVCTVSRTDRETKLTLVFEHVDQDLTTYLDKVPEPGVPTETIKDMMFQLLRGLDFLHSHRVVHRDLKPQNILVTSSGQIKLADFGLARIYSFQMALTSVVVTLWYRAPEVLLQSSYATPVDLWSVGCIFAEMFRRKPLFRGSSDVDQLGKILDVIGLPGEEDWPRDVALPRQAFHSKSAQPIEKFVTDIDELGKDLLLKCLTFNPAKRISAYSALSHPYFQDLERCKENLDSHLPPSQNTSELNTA
experimental_endpoint: pIC50
Here pIC50 is given on a logarithmic scale as minus log10 of the concentration in mol/L.

[ask] Report pIC50 for CC(C)c1nn(C)c2c1-c1nc(Nc3ccc(N4CCNCC4)cn3)ncc1C2 please.
[reply] 7.28

These data points were gathered from BindingDB's records for patent US11168088.
